Listed next: entries and their corresponding Plant response rating, Kochia.
Test system: kochia (Bassia scoparia)
Assay: Test A preemergence, kochia
Format: in vivo
Settings: Preemergence, 500 g ai/ha; 0 to 100 scale (0 no effect, 100 complete control)
endpoint.label: Plant response rating, Kochia

molecule=Cc1cc(Cl)c(C2=NOC(C)(C)C2)cc1NS(=O)(=O)C(F)(F)F endpoint_value=60
molecule=Cc1cc(C)c(-c2cc(C(F)(F)F)nn(C)c2=O)cc1NS(=O)(=O)C(F)(F)F endpoint_value=40
molecule="Cc1cc(C)c(C2=NOC3(C2)CC(C)OC(C)C3)cc1NS(=O)(=O)C(F)(F)F (single isomer, unassigned) [Compound 171]" endpoint_value=90
molecule=COC1(OC)CCN(C(=O)c2cc(NS(=O)(=O)C(F)(F)F)c(C)cc2C)CC1 endpoint_value=90

###

Listed next: entries and their corresponding Plant response rating, Soybean.
Tested on: soybean (Glycine max)
Assay: Test A1 preemergence, soybean
Assay type: in vivo
Conditions: 31 g ai/ha, 0 to 100 scale (0 no effect, 100 complete control)
Text: […]
endpoint.label: Plant response rating, Soybean

molecule=Cc1c(C(=O)N2CCCCC2)cc(N(COC(=O)C(C)(C)C)S(=O)(=O)C(F)(F)F)c(C)c1C endpoint_label="Plant response rating, Soybean" endpoint_value=0
molecule=Cc1cc(C)c(N(COC(=O)C(C)(C)C)S(=O)(=O)C(F)(F)F)cc1C(=O)N1CCC(C)CC1 endpoint_label="Plant response rating, Soybean" endpoint_value=10
molecule=Cc1c(C(=O)N2CCOCC2)cc(N(COC(=O)C(C)(C)C)S(=O)(=O)C(F)(F)F)c(C)c1C endpoint_label="Plant response rating, Soybean" endpoint_value=20
molecule="CCOC1CC(c2cc(N(COC(=O)C(C)(C)C)S(=O)(=O)C(F)(F)F)c(C)cc2C)=NO1 (stereo not shown)" endpoint_label="Plant response rating, Soybean" endpoint_value=0
molecule="Cc1cc(C)c(C2=NOC(OCC(C)C)C2)cc1NS(=O)(=O)C(F)(F)F (stereo not shown)" endpoint_label="Plant response rating, Soybean" endpoint_value=0
molecule=Cc1c(C(=O)N2C[C@@H](C)O[C@@H](C)C2)cc(N(COC(=O)C(C)(C)C)S(=O)(=O)C(F)(F)F)c(C)c1C endpoint_label="Plant response rating, Soybean" endpoint_value=0
molecule=Cc1c(NS(=O)(=O)C(F)(F)F)cc(C(=O)N2CCC(Cl)CC2)c(C)c1C endpoint_label="Plant response rating, Soybean" endpoint_value=0

###

Listed next: entries and their corresponding Oat, Wild plant response rating.
Tested on: Oat, Wild (wild oat, Avena fatua)
Assay: Test A1 postemergence, Oat, Wild
Type: in vivo
Settings: 31 g ai/ha, postemergence; 0 to 100 scale (0 no effect, 100 complete control)
endpoint.label: Oat, Wild plant response rating

compound="Cc1ccc(C2=NOC3CCCC23)cc1NS(=O)(=O)C(F)(F)F (centres unmarked) [Compound 377]" endpoint_label="Oat, Wild plant response rating" endpoint_value=0
compound="Cc1cc(Cl)c(NS(=O)(=O)C(F)(F)F)cc1N1CCC2(CCCCC2)C1=O [Compound 393]" endpoint_label="Oat, Wild plant response rating" endpoint_value=0
compound="Cc1cc(C)c(N2CCC3(CCC(C)CC3)C2=O)cc1NS(=O)(=O)C(F)(F)F (centres unmarked) [Compound 402]" endpoint_label="Oat, Wild plant response rating" endpoint_value=10
compound="CCC1CC(c2cc(N(COC(=O)C(C)(C)C)S(=O)(=O)C(F)(F)F)c(C)cc2C)=NO1 (centres unmarked) [Compound 376]" endpoint_label="Oat, Wild plant response rating" endpoint_value=0
compound="CCC1CC(c2cc(NS(=O)(=O)C(F)(F)F)c(C)cc2C)=NO1 (centres unmarked) [Compound 375]" endpoint_label="Oat, Wild plant response rating" endpoint_value=0
compound="Cc1cc(C)c(C2=NOC3OCCCC23)cc1NS(=O)(=O)C(F)(F)F (centres unmarked) [Compound 372]" endpoint_label="Oat, Wild plant response rating" endpoint_value=0
compound="Cc1c(C2=NOC3(CCCC3)C2)cc(N(COC(=O)C(C)(C)C)S(=O)(=O)C(F)(F)F)c(C)c1C [Compound 382]" endpoint_label="Oat, Wild plant response rating" endpoint_value=0
compound="COC1CCN(C(=O)c2cc(NS(=O)(=O)C(F)(F)F)c(C)c(C)c2C)CC1 [Compound 367]" endpoint_label="Oat, Wild plant response rating" endpoint_value=0
compound="CCOc1cccc2c1C(=O)N(c1cc(N(COC(=O)C(C)(C)C)S(=O)(=O)Cl)c(C)cc1C)C2 [Compound 414]" endpoint_label="Oat, Wild plant response rating" endpoint_value=0
compound="CCOC(=O)N(c1cc(C2=NOC3CCCC23)c(CC)cc1C)S(=O)(=O)C(F)(F)F (centres unmarked) [Compound 379]" endpoint_label="Oat, Wild plant response rating" endpoint_value=0
compound="Cc1cc(Cl)c(NS(=O)(=O)C(F)(F)F)cc1N1CC2(CCCCC2)OC1=O [Compound 394]" endpoint_label="Oat, Wild plant response rating" endpoint_value=0
